Measured growth by item
- Tested on: RXF 393 renal
- test-name: NCI-60 one-dose screen, 48 h (100 = growth as untreated, 0 = no growth, -100 = all killed)
- condition-label: 10 µM unless noted
This is part of a sample that, as a whole, favours compounds with a hit. Of some 83,000 tested, about 20% had one in any assay.
Quick note: give the figure in %, leave out the unit.

Examples from the recorded data:
{"columns": ["compound", "property-measured", "unit-info", "reported"],
 "data": [
  ["C=C1C(=O)O[C@H]2[C@H]1CC/C(COC(=O)NCc1ccc(Cn3c(=O)sn(-c4ccc(OC)cc4)c3=O)cc1)=C\\CC[C@@]1(C)O[C@@H]21", "growth", "%", 42.3],
  ["Cc1ccc(-c2cc(C(=O)N3N=C(c4ccc(N)cc4)CC3c3ccc(Cl)cc3)c3ccccc3n2)cc1 (stereo not drawn)", "growth", "%", -0.262],
  ["O=c1[nH]cnc2c1C(c1ccc(Br)cc1)c1sc3c(F)cccc3c1O2 (stereo not drawn)", "growth", "%", 101],
  ["O=C1OCC2=C1C(c1cccc(C(F)(F)F)c1)c1cc3c(cc1N2CCO)OCO3 (stereo not drawn)", "growth", "%", 1.92],
  ["COc1ccc(-c2oc(=O)ccc2-c2cc(OC)c(OC)c(OC)c2)cc1O", "growth", "%", -38.7]
]}

For the compound O=C1N[C@@H]2[C@@H](O)[C@@H](O)[C@H](O)C[C@H]2c2cc3c(c(O)c21)OCCO3 , what growth is on record?
-24.2

Same read-out for O=C(CSc1nc2ccc([N+](=O)[O-])cc2[nH]1)Nc1cccc([N+](=O)[O-])c1 ?
60.5
